Quick reference: OD450 of the listed items.
measurement_target: T1, human MSLN-R2-his protein (human, UniProt Q13421 391-486)
T1 construct: also called human MSLN-R2 protein; hMSLN-R2-his; not shown: His tag
T1 sequence (Q13421 other isoform, or with tags, fused parts or gaps): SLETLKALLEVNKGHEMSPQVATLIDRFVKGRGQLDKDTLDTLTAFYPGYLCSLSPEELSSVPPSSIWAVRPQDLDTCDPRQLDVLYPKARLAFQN
procedure_text: ELISA, coated antigen; antibody 1 nM
Give the value, in units of OD450, as a plain number.

Use the examples below as a reference point.
Task: Could you tell me which OD450 is on file for S009-F4-127.10 (antibody, human IgG1, kappa, V domains shown, Human-murine chimeric antibody, human IgG1/kappa constant regions) VH: EVQLQQSGPVLVKPGASVKMSCKASGYTFTDYYMNWVKQSHGKSPEWIGVINPYNDVISYNQKFKGKATLTVDKSSSTAYMELNSLTSEDSAVYYCANYGSSYYAMDYWGQGTSVTVSS VL: DVVMTQTPLSLSVSLGDQASISCRSSQSLVHSNGNTYLQWSLQKPGQSPNLLIYKVSNRFSGVPDRFSGSGSGTDFTLKISRVEAEDLGVYFCSQTTHVPFTFGGGTKLEIRR ?
Output: 0.05

Task: Could you tell me which OD450 is on file for S009-F4-94.15 (antibody, human IgG1, kappa, V domains shown, Human-murine chimeric antibody, human IgG1/kappa constant regions) VH: QVQLHQPGAELVRPGSSVKLSCKASGYTFTSYWVHWVQQRPRQGLEWIGNIDPSDSEIHYNQKFKDKATLTVDKSSSTAYIHLSRLTSEDSAIYYCVRGGVPWFAYWGQGTLVTVSA VL: QIVLTQSPAIMSASPGEKVTLTCSASSSVSSTYLYWFQQKPGSSPKVWIYSTSNLASGVPARFSGSGSGTSYSLTISSMEAEDAASYFCHQWISYPYTFGGGTKLEIKR ?
Output: 0.05

Task: Could you tell me which OD450 is on file for Tab106 (YP218, hIgG1) (antibody, V domains shown, Control antibody: YP218 VH and VL recombined into human IgG1 CH and CL expression vectors; also called YP218 human IgG1 antibody) VH: QQQLEESGGGLVKPEGSLTLTCKASGFDLGFYFYACWVRQAPGKGLEWIACIYTAGSGSTYYASWAKGRFTISKASSTTVTLQMTSLAAADTATYFCARSTANTRSTYYLNLWGPGTLVTVSS VL: DVVMTQTPASVSEPVGGTVTIKCQASQRISSYLSWYQQKPGQRPKLLIFGASTLASGVPSRFKGSGSGTEYTLTISDLECADAATYYCQSYAYFDSNNWHAFGGGTEVVVRT ?
Output: 0.3

Task: Could you tell me which OD450 is on file for S009-F6-76.1 (antibody, human IgG1, kappa, V domains shown, Human-murine chimeric antibody, human IgG1/kappa constant regions) VH: QVQLQQSGPELVKPGASVKISCKASGYTFTDYYINWVKQRPGQGLEWIGWIFPGRGSTFYYEKFKGKATLTVDKSSSTAYMLLSSLTSEDSAVYFCARRGDSAGYEDLDYWGQGTSVTVSS VL: NIVMTQSPKFMSMSVGERVTLSCKASENVVTYVSWYQQKPKQSPKLLIYGASKRYTGVPDRFTGSGSATDFTLTISSVQAEDLGDYHCGQSYSYPYTFGGGTKLEIKR ?
Output: 0.12

Below: the item to evaluate.
Task: Could you tell me which OD450 is on file for S009-F5-9.16 (antibody, human IgG1, kappa, V domains shown, Human-murine chimeric antibody, human IgG1/kappa constant regions) VH: EVQLRQSGPVLVKPGASVKMSCKASGYTFTDYFMNWVKPSHGKSLEWIGVINPSNGVINYNQRFKGKATLTVDKSSSTAYMELNSLTSEDSAVYYCARSYDFAWFAYWGQGTLVTVSA VL: DVLMTQTPLSLPVSLGDQASISCRSSQNIVHSNGNTYLEWYLQKPGQSPKLLIYTVSNRFSGVPDRFSGSGSGTDFTLKISRVEAEDLGVYYCFQGSHVPYTFGGGTKLEIKR ?
Output: 0.04
